Measured values drawn from patent US20220282217A1 for this set.

- SYSTEM_NAME: HLA-A02.01 (Homo sapiens, UniProt P04439, D140Y/D185E/D98H/E176V/E277Q/G131W/G231S/I119V/I121R/I166T/I218V/N151K/N90K/P208A/P217A/Q86G/Q94H/R138H/R169H)
- Construct: made in house; host or cells: E. coli
- METHOD: Class I MHC peptide binding stability (pMHC-I dissociation, 125I-labeled light chain)
- TEST_CONTEXT: allele A02.01
Where a SMILES comes first, the peptide text is derived from it.
EXPERIMENTAL_READOUT: Stability (T1/2 (h))
Quick note: give the figure in h, leave out the unit.

Query: Return Stability (T1/2 (h)) (reported value) for this molecule: CC[C@H](C)[C@H](N)C(=O)N[C@@H](CCSC)C(=O)N[C@@H](CCC(N)=O)C(=O)N[C@@H](CC(C)C)C(=O)N[C@@H](CCSC)C(=O)N1CCC[C@H]1C(=O)N[C@@H](Cc1ccccc1)C(=O)NCC(=O)N[C@@H](CS)C(=O)N[C@@H](CC(C)C)C(=O)O
Response: 0.5

Query: Tell us which Stability (T1/2 (h)) value is on record for CSCC[C@H](NC(=O)[C@H](CC(C)C)NC(=O)[C@H](CCC(N)=O)NC(=O)[C@@H](N)CCSC)C(=O)N1CCC[C@H]1C(=O)N[C@@H](Cc1ccccc1)C(=O)NCC(=O)N[C@@H](CS)C(=O)N[C@@H](CC(C)C)C(=O)O
Response: 0.4

Query: Kindly indicate its recorded Stability (T1/2 (h)). Item: CSCC[C@H](NC(=O)[C@H](CS)NC(=O)[C@H](CO)NC(=O)[C@H](CO)NC(=O)[C@H](CC(N)=O)NC(=O)[C@H](CS)NC(=O)[C@H](CCSC)NC(=O)[C@@H](N)Cc1ccc(O)cc1)C(=O)NCC(=O)N[C@@H](CO)C(=O)O (H-YMCNSSCMGS-OH; N-terminus and C-terminus assumed)
Response: 0.8

Query: Supply measured Stability (T1/2 (h)) of CC[C@H](C)[C@H](NC(=O)[C@H](CCCCN)NC(=O)[C@H](C)NC(=O)[C@@H](NC(=O)[C@@H](N)CCCNC(=N)N)C(C)C)C(=O)N[C@@H](C)C(=O)N[C@@H](CC(=O)O)C(=O)N[C@@H](Cc1ccccc1)C(=O)NCC(=O)N[C@@H](CCSC)C(=O)O (H-RVAKIADFGM-OH; N-terminus and C-terminus assumed) in your reply.
Response: 0.5

Query: Recall and state the measured Stability (T1/2 (h)) for CC(C)[C@H](NC(=O)[C@H](CO)NC(=O)[C@H](Cc1ccccc1)NC(=O)[C@H](Cc1ccccc1)NC(=O)[C@H](Cc1ccccc1)NC(=O)[C@H](Cc1ccccc1)NC(=O)[C@H](CS)NC(=O)[C@@H](NC(=O)[C@@H](N)CO)C(C)C)C(=O)O .
Response: 9.4

Query: Provide Stability (T1/2 (h)) value for the following molecule: CC[C@H](C)[C@H](NC(=O)[C@H](CC(=O)O)NC(=O)[C@H](Cc1ccccc1)NC(=O)[C@H](CC(C)C)NC(=O)[C@@H](NC(=O)[C@H](CCC(=O)O)NC(=O)[C@@H](NC(=O)[C@H](CCSC)NC(=O)[C@@H](N)Cc1c[nH]c2ccccc12)[C@@H](C)O)[C@@H](C)O)C(=O)O (H-WMTETLFDI-OH; N-terminus and C-terminus assumed)
Response: 4

Query: Given CC(C)C[C@H](NC(=O)[C@H](CO)NC(=O)[C@H](CC(N)=O)NC(=O)[C@H](CS)NC(=O)[C@H](CCC(=O)O)NC(=O)[C@H](Cc1c[nH]cn1)NC(=O)[C@H](CC(C)C)NC(=O)[C@@H](NC(=O)[C@@H](N)CCC(N)=O)C(C)C)C(=O)O , respond with its Stability (T1/2 (h)).
Response: 0.5

Query: Give me measured Stability (T1/2 (h)), please, for this molecule: CC[C@H](C)[C@H](NC(=O)[C@H](CCCCN)NC(=O)[C@H](CO)NC(=O)[C@H](CCC(=O)O)NC(=O)[C@H](C)NC(=O)[C@H](CCCCN)NC(=O)[C@H](CC(C)C)NC(=O)[C@H](Cc1ccccc1)NC(=O)[C@H](CCSC)NC(=O)[C@@H](N)Cc1ccc(O)cc1)C(=O)O
Response: 0.6

Query: Tell us which Stability (T1/2 (h)) value is on record for CSCC[C@H](NC(=O)[C@H](CCC(=O)O)NC(=O)[C@H](CCCNC(=N)N)NC(=O)[C@H](CC(C)C)NC(=O)[C@H](Cc1ccc(O)cc1)NC(=O)[C@H](CC(N)=O)NC(=O)[C@H](CC(C)C)NC(=O)[C@H](CC(C)C)NC(=O)[C@@H](N)CO)C(=O)O
Response: 3

Query: Annotate the molecule CC[C@H](C)[C@H](NC(=O)[C@H](Cc1ccc(O)cc1)NC(=O)[C@H](CCC(=O)O)NC(=O)CNC(=O)[C@H](CO)NC(=O)[C@@H](N)Cc1ccccc1)C(=O)N1CCC[C@H]1C(=O)N[C@H](C(=O)N[C@H](C(=O)O)C(C)C)[C@@H](C)O (H-FSGEYIPTV-OH; N-terminus and C-terminus assumed) with its measured Stability (T1/2 (h)).
Response: 6.8

Query: Name the recorded Stability (T1/2 (h)) of the molecule listed here: CC[C@H](C)[C@H](NC(=O)[C@H](CO)NC(=O)[C@H](Cc1c[nH]c2ccccc12)NC(=O)[C@H](Cc1c[nH]cn1)NC(=O)[C@H](C)NC(=O)[C@@H]1CCCN1C(=O)[C@H](CCSC)NC(=O)[C@H](CC(C)C)NC(=O)[C@H](CO)NC(=O)[C@@H](N)CC(C)C)C(=O)O
Response: 0.4

Query: Retrieve Stability (T1/2 (h)) measured for CSCC[C@H](NC(=O)[C@@H](N)C(C)C)C(=O)N[C@@H](C)C(=O)N[C@@H](Cc1ccc(O)cc1)C(=O)N[C@H](C(=O)N[C@@H](CCSC)C(=O)N[C@@H](C)C(=O)NCC(=O)N[C@H](C(=O)O)C(C)C)C(C)C (H-VMAYVMAGV-OH; N-terminus and C-terminus assumed) and print it.
Response: 16.5

Query: Answer with reported Stability (T1/2 (h)) of CSCC[C@H](NC(=O)[C@H](CCC(=O)O)NC(=O)[C@H](CC(C)C)NC(=O)[C@H](CC(C)C)NC(=O)[C@H](CC(C)C)NC(=O)[C@H](CC(=O)O)NC(=O)[C@H](CO)NC(=O)[C@H](CC(C)C)NC(=O)[C@@H]1CCCN1)C(=O)O (H-PLSDLLLEM-OH; N-terminus and C-terminus assumed)
Response: 2.7

Query: Consider the molecule CSCC[C@H](NC(=O)[C@H](CCC(N)=O)NC(=O)[C@H](CC(C)C)NC(=O)[C@@H](NC(=O)[C@@H](N)CCCCN)C(C)C)C(=O)N[C@@H](CC(=O)O)C(=O)N[C@@H](Cc1ccccc1)C(=O)N[C@@H](CC(C)C)C(=O)N[C@H](C(=O)O)C(C)C (H-KVLQMDFLV-OH; N-terminus and C-terminus assumed) and give its recorded Stability (T1/2 (h)).
Response: 6.4

---

Task for the reader: assign each of the following compounds its reported IC50.
- SYSTEM_NAME: HLA-A02.01 (Homo sapiens, UniProt P04439, D140Y/D185E/D98H/E176V/E277Q/G131W/G231S/I119V/I121R/I166T/I218V/L300P/L318F/N151K/N90K/P208A/P217A/Q86G/Q94H/R138H/R169H/T345S)
- METHOD: Class I MHC peptide binding affinity (displacement of radiolabeled reference peptide)
- TEST_CONTEXT: allele A02.01; read-out: Observed Affinity (IC50; (nM))
- Experimental: In brief, MHCI complexes were prepared and bound to radiolabeled reference peptides. Peptides were incubated at varying concentrations with these complexes for 2 days, and the amount of remaining radiolabeled peptide bound to […] was measured using size exclusion gel-filtration.
Where a SMILES comes first, the peptide text is derived from it.
Don't forget the unit after the number, please.

Query: Provide only the value of recorded IC50 for CC[C@H](C)[C@H](NC(=O)[C@@H](NC(=O)[C@H](CO)NC(=O)[C@H](Cc1ccccc1)NC(=O)[C@H](Cc1ccccc1)NC(=O)[C@@H](N)Cc1ccccc1)C(C)C)C(=O)N[C@@H](Cc1ccccc1)C(=O)N[C@@H](CO)C(=O)N[C@H](C(=O)O)[C@@H](C)O (H-FFFSVIFST-OH; N-terminus and C-terminus assumed)
Response: 4560 nM

Query: Quick one: give measured IC50 for CC(C)C[C@H](NC(=O)[C@H](C)N)C(=O)N[C@@H](CCC(=O)O)C(=O)N[C@@H](CCC(=O)O)C(=O)N[C@@H](CCCCN)C(=O)N[C@@H](CCCCN)C(=O)NCC(=O)N[C@@H](CC(N)=O)C(=O)N[C@@H](Cc1ccc(O)cc1)C(=O)N[C@H](C(=O)O)C(C)C (H-ALEEKKGNYV-OH; N-terminus and C-terminus assumed)
Response: 141 nM
